# condition notes: human gut metagenome, 24 h, 2 µM; note: call rule not given here
recorded metric: Bacterial Biotransformation

Below are worked cases with known answers.
# molecule, Bacterial Biotransformation
data = [
    ("CC(C)NCC(O)COc1ccc(COCCOC(C)C)cc1.CC(C)NCC(O)COc1ccc(COCCOC(C)C)cc1.O=C(O)/C=C/C(=O)O (stereo unspecified) [BISOPROLOL FUMARATE]", "Compound NOT metabolized"),
    ("CC(=O)CC(c1ccccc1)c1c(O)c2ccccc2oc1=O (stereo unspecified)", "Compound metabolized"),
    ("O=c1n(CCCN2CCN(c3cccc(Cl)c3)CC2)nc2ccccn12", "Compound metabolized"),
    ("CN1C(C(=O)Nc2ccccn2)=C(O)c2sccc2S1(=O)=O", "Compound NOT metabolized"),
]

Query: Fill blank: measured Bacterial Biotransformation of the molecule CC(C)N(CCC(C(N)=O)(c1ccccc1)c1ccccn1)C(C)C.O=P(O)(O)O (stereo unspecified) [DISOPYRAMIDE PHOSPHATE] is ____.
Reply: Compound NOT metabolized

Query: And the next one, CC[C@@H](CO)NC(=O)[C@@H]1C=C2c3cccc4c3c(cn4C)C[C@H]2N(C)C1.O=C(O)/C=C\C(=O)O [METHYSERGIDE MALEATE] ?
Reply: Compound metabolized

Query: Same read-out for CCCC(=O)Nc1ccc(OCC(O)CNC(C)C)c(C(C)=O)c1 (stereo unspecified) ?
Reply: Compound metabolized

Query: Also check CCCCC1=NC2(CCCC2)C(=O)N1Cc1ccc(-c2ccccc2-c2nnn[nH]2)cc1
Reply: Compound metabolized

Query: Try this molecule next: CN(C)CC(c1ccc(O)cc1)C1(O)CCCCC1.O=C(O)CCC(=O)O (stereo unspecified) [DESVENLAFAXINE SUCCINATE]
Reply: Compound NOT metabolized

Query: Then this molecule: CNC(=C[N+](=O)[O-])NCCSCc1ccc(CN(C)C)o1
Reply: Compound NOT metabolized

Query: Try CO[C@]12C[C@@H](COC(=O)c3cncc(Br)c3)CN(C)[C@@H]1Cc1cn(C)c3cccc2c13 next.
Reply: Compound NOT metabolized

Query: Record: CCC(COC(=O)c1cc(OC)c(OC)c(OC)c1)(c1ccccc1)N(C)C.O=C(O)/C=C\C(=O)O (stereo unspecified)
Reply: Compound metabolized

Query: How about CC(C)NCC(O)c1ccc(NS(C)(=O)=O)cc1 (stereo unspecified) ?
Reply: Compound NOT metabolized

Query: Continue with CC(=O)O[C@]1(C(C)=O)CC[C@H]2[C@@H]3C=C(Cl)C4=CC(=O)[C@@H]5C[C@@H]5[C@]4(C)[C@H]3CC[C@@]21C [CYPROTERONE ACETATE]
Reply: Compound metabolized

Query: Also need CN1CCN(C(=O)O[C@H]2c3nccnc3C(=O)N2c2ccc(Cl)cn2)CC1 , thanks.
Reply: Compound NOT metabolized

Query: Proceed to O=c1[nH]c2ccccc2n1C1CCN(CCCC(c2ccc(F)cc2)c2ccc(F)cc2)CC1 [PIMOZIDE]
Reply: Compound metabolized
